# experiment-notes: label from the status in PepcDB records

>  <construct-sequence>
MNNTQQFSLSMRLFHWAMAALVISMLAAGLLMVRSLEPWQLSILTVHKAFGVVAAALVIARLMNRLFHQIPALPGDLSSLQTFVAKASHWLLYLLLFAMPISGYLMQYFAGRPIDVFGWFRLPSALTVNIENYAIFRELHGWLAIALMALVALHVAAALHHHFIRKDTVLKSML

>  <protein production>
failed

$$$$
>  <construct-sequence>
MERMMNKRILKGTLTAIAALMSAHAFAGQEVTVYTAFETDLLAKYKSAFEKENPDIEIKWVRDSTGIMTAKLLAEKDNPRAEVVWGLAGSSMALLKDQGVLKPYTPKGANELRANLNDPQAQQAWYGNDAFFNAVCFNEAVAKQLNLPKPQSWEDLTNPVYKGHIAMPNPASSGTGYMQVSAWLQNMGEDKAWDYMQRLDQNIAHYTHSGSKPCVQAGMGEVAIGISMATRGAKLKTQGAPLDVIVPNGIGWESEAVGLVKESDAAKRVVDWSVSKAANELYIESYPIVGHQDVSKQVPNYPNVEKVMAKMDFTQMGVDRARVLQTWSEKFDAKSEPKS

>  <protein production>
failed

$$$$

----------
# experiment-notes: label from the status in PepcDB records

>  <construct-sequence>
MKTDWSHYLSVEMESTISNELSILCGAEVAFLGYSCSGKPYTFGSPSFQAVAERFLNREASSSLQRSVMNAHQQAKIQELCKVYNRMVEEAKTEEAKVKKAAALAETMPVDEDAWWKVDPKEVEDHEEAKKIMEKCEGLYEKLCNEAAARIQRGDAENNNK

>  <protein production>
failed

$$$$
>  <construct-sequence>
SSSTEVKDNVLTEEEKAEGYTLLFNGKDFTGWKMFNGGDVKGWQVEDGVIVGYGNGGDVIADTTIKVSTDIVTVKNYHNFQIKWDWKIGAQGNSGFLYHVQEGPKYKAPFETGPEYQLIDDDNYPWVSETGKEGLEDWQKTGCNYAMYVPETKQVNPPGEWNSSMVLYKDGYVEHWLNGEKLFSFQEGSEDWKMRRYSGKWEAFPDYGISTTGKLCFQDHGSKVYFKNVKIKDLD

>  <protein production>
not failed

$$$$
>  <construct-sequence>
ELSERQRAEQKLLEVNQLQKGIFDVANYMIISTDRRGIISTFNRTAEEILGYTAAELIGQQTPLIFHDQEEMASEAVQLSQQLQQTIRPNSIDMFAIPAIQWGVYEREWTYITKTGDRLPVYVSITALRDDQGKVDGLVGV

>  <protein production>
failed

$$$$
>  <construct-sequence>
MELTALDKLEIMELAARFEMSLDKEDVENYLATFASDGALQGFWGIAKGKEELRQGFYAMLDTFARGKRHCSSNAIIQGNYDEATMESYLTVVNREDLNRAGSAFVKDQVRKINGKWYLILRQIEVDPSLPLLQQSQQAGANA

>  <protein production>
not failed

$$$$

----------
# experiment-notes: label from the status in PepcDB records
measured-metric: protein production

Study these solved cases before continuing.
>  <construct-sequence>
MTMSTTREIAFLIARILLGVILIAHGWDKFAITGLEGVTGFFDSLGIPAAGIAAIAAAVVELLGGILIILGVFTRIVAAFVAIDMLFAALFAHVSSGIFVTNNGWELTGAIGAGALLLIAVGAGAWSIDGVLAKRKA

>  <result>
failed

$$$$
>  <construct-sequence>
DLEPRERLHRILEQVLVFAGAMVAAAYTHSEDGDQLCLAESAGVPRSLYGLRDSYPLTGGTPAADVHRSGQPLWLTPEDLGRCADARRLPNGDFSLAVLPLGDGGCLAAVSERAGGFDADDRECLRLLAGSVA

>  <result>
failed

$$$$
>  <construct-sequence>
MGRISSGGMMFKAITTVAALVIATSAMAQDDLTISSLAKGETTKAAFNQMVQGHKLPAWVMKGGTYTPAQTVTLGDETYQVMSACKPHDCGSQRIAVMWSEKSNQMTGLFSTIDEKTSQEKLTWLNVNDALSIDGKTVLFAALTGSLENHPDGFNFK

>  <result>
not failed

$$$$
>  <construct-sequence>
MSLVEATLEVIGGKWKCVILCHLTHGKKRTSELKRLMPNITQKMLTQQLRELEADGVINRIVYNQVPPKVEYELSEYGRSLEGILDMLCAWGANHINRVEGHHHHHH

>  <result>
not failed

$$$$
>  <construct-sequence>
TKKDVHDLFLNHVNSNAVKTRKMMGEYIIYYDSVVIGGLYDNRLLVKATKSVRHQLQDNTLVSPYPGAKEMILIPDITEAINLTNLFELIKNDLKN

>  <result>
failed

$$$$

Ask | Provide only the value of recorded protein production for "MRPLAAILALPILEIALFVTIGGAIGLLATLLIIFGTAALGVFLLRRQGVEMQAALQMPRRMDPLALMADGAAVSLAAALLILPGFFTDTVGLLLLIPPVRRALIRRLGRNVQVRSTTWRGPVRDDAPIEADYHEVEPVRDPLAPPSQPPGSSGWTRH"
Reply | failed

Ask | Look up and report measured protein production for this entry: "MVIGQKVLLARIPKMGDNYSTYLLDIEGTVCPISFVKETLFPYFTNKVPQLVQQDTRDSPVSNILSQFHIDNKEQLQAHILELVAKDVKDPILKQLQGYVWAHGYESGQIKAPVYADAIDFIKRKKRVFIYSSGSVKAQKLLFGYVQDPNAPAHDSLDLNSYIDGYFDINTSGKKTETQSYANILRDIGAKASEVLFLSDNPLELDAAAGVGIATGLASRPGNAPVPDGQKYQVYKNFETL"
Reply | not failed

Ask | Consider the sequence "MSALDIPVTPENYTVWYEYFAQSNLDLNRAIDGFLANNVVFTKEVNTSLYKNFIQEKSPEVIENVQIETQILINSLISKITQLNQGTEAFSNTLADFGLQLQSSPDVNTLNQLVDGVIDEMQNLLVNNQTMEQSLNAMGQEVQNLKTEMENLSLAAMTDQLTSLHNRRAYEIAIQDHIHRAEEQHTRCSLLLIDIDRFKVFNDTYGHQVGDKVLAYVALALKQCVRGDDFVARYGGEEFVVLLPNTHFHDALQVAETLRGRISERRLAIGKDKKLSLGAITVSIGLASLQKGDDAETLFSRADKALYEAKSDGRNCVRG" and give its recorded protein production.
Reply | failed

Ask | Report protein production for "ENEIERPEDMRVRTLANKSKMKVSIVQQIDRKVALDDIAVSHGLDFPELLSEVETIVYSGTRINIDYFINEVMDEDHLEDIFEYFKESTTDSLEEAMQELGKDYSEEEIRLVRIKFLSEMAN"
Reply | not failed

Ask | Given the sequence "RKILDSKAIDLMNALMRLNQIRPGLQYKLLSQSGPVHAPVFTMSVDVDGTTYEASGPSKKTAKLHVAVKVLQAMGYPTGFDADI" , write its reported protein production.
Reply | not failed

Ask | Identify measured protein production associated with "LPAGLYFVGTPIGSARDITLRALDVLASAEVIAAEDTRSLRHLLDIHGVPLDGRRVLAYHDHSGAGAQARLLEALAEGKSVAYASEAGMPLIADPGFELSRAAAEAGHMVTC"
Reply | not failed
